- STUDY SYSTEM: T1, human ROR2 expressed on the cell surface (human, UniProt Q01974 34-943)
- T1 construct: Endogenous ROR2 of human tumour cell lines; also called cell surface ROR2; ROR2 on tumour cell lines
- T1 sequence (Q01974 34-943 limits assumed): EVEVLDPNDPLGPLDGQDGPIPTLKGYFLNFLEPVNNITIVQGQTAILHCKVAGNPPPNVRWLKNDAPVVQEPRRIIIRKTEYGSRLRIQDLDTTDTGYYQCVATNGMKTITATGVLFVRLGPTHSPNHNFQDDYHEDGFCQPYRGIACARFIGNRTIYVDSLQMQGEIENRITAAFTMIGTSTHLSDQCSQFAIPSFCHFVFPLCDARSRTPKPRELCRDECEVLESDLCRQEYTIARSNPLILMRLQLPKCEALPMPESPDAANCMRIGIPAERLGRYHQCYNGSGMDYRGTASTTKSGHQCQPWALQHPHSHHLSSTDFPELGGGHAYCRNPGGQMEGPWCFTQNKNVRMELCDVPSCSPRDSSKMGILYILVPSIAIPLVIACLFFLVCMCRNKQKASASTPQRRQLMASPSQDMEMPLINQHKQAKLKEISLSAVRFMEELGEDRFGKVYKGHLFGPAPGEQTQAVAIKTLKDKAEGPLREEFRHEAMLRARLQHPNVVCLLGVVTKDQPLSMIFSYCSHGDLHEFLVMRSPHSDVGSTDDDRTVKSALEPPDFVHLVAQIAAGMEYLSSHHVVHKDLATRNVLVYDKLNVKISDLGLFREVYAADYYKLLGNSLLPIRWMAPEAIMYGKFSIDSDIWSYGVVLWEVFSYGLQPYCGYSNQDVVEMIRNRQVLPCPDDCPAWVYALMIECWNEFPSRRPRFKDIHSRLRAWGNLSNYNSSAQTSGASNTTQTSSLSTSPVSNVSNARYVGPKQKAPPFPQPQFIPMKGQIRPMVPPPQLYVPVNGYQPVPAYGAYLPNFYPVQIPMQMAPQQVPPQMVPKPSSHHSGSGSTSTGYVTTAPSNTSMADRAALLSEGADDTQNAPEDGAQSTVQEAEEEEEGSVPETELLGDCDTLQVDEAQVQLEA
- TEST SUMMARY: flow cytometry, SKNMM cells (neuroblastoma)
- Design: unit not given here
VALUE TYPE: binding intensity
Keep the answer to the number alone.

I'd like to know its binding intensity. The binder in question is ROR2-241 full length human IgG1 antibody (antibody, V domains shown) VH: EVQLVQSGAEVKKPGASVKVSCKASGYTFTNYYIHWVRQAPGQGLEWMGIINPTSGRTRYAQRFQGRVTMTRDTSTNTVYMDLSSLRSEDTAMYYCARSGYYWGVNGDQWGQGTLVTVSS VL: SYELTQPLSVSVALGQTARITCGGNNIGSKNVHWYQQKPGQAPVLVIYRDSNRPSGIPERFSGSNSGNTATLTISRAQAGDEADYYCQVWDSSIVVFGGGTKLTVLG
126

I'd like to know its binding intensity. The binder in question is ROR2-27 full length human IgG1 antibody (antibody, V domains shown, also called clone #27; clone #027 IgG1) VH: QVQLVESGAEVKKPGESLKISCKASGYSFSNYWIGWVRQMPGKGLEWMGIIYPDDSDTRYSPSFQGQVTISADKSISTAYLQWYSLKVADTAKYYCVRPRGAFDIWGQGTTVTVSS VL: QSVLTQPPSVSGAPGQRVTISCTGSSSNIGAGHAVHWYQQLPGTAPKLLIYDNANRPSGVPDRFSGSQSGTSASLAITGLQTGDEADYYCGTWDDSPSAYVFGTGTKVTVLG
69

I'd like to know its binding intensity. The binder in question is ROR2-90 full length human IgG1 antibody (antibody, V domains shown, also called clone #90; antibody #90) VH: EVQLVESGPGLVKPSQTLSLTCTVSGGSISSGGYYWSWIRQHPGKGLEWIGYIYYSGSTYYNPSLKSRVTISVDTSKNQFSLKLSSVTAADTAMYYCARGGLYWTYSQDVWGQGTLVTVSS VL: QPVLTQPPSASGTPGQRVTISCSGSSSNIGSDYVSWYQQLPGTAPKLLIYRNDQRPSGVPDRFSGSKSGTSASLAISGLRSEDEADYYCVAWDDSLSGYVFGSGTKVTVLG
117

I'd like to know its binding intensity. The binder in question is ROR2-23 full length human IgG1 antibody (antibody, V domains shown, The light chain of clone 023 is labelled kappa; also called clone #23; clone #023 IgG1) VH: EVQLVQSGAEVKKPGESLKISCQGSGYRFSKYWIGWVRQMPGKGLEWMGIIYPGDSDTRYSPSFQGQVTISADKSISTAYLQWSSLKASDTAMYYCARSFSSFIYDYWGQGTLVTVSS VL: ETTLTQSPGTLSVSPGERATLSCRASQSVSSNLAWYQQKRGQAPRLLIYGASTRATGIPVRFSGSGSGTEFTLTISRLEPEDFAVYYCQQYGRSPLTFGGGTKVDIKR
77

I'd like to know its binding intensity. The binder in question is ROR2-240 full length human IgG1 antibody (antibody, V domains shown, also called clone #240 IgG1) VH: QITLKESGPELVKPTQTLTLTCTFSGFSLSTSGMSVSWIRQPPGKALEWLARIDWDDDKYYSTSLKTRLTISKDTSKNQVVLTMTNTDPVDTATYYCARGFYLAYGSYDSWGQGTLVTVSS VL: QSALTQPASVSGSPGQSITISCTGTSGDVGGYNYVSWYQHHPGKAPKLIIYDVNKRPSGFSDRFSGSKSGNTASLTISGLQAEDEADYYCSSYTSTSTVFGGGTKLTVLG
84
